- PROTOCOL SUMMARY: Cytotoxicity against human MT2 cells assessed as inhibition of cell proliferation after 5 days by luminescence assay
- Assay type: cell-based
EXPERIMENTAL ENDPOINT: CC50 at 120 h

Some entries whose results are on file:
{"columns": ["ITEM SMILES", "CC50 at 120 h"],
 "data": [
  ["Nc1nc(NC2CC2)c2ncn(C[C@@H](CF)OCP(=O)(O)O)c2n1", "> 100 µM"],
  ["CCOC(=O)[C@H](C)NP(=O)(COCCOc1cc(N)nc(N)n1)N[C@@H](C)C(=O)OCC", "73.3 µM"]
]}

Reported CC50 at 120 h for CCOC(=O)[C@H](C)NP(=O)(CO[C@H](C)Cn1cnc2c(N)nc(F)nc21)N[C@@H](C)C(=O)OCC : what is it?
> 100 µM

Lookup CCOC(=O)[C@H](C)NP(=O)(CO[C@H](C)Cn1cnc2c(N)nc(N)nc21)N[C@@H](C)C(=O)OCC
> 100 µM

----------
- System: HL-60
- PROTOCOL SUMMARY: Antiproliferative activity against human HL60 after 72 hrs by XTT assay
- Type: functional, cell-based
- CONDITIONS: HL-60, 72 h
EXPERIMENTAL ENDPOINT: IC50 (nM)
Numbers only; they are read as nM.

{"columns": ["COMPOUND", "UNITS SYMBOL", "VALUE OBSERVED"],
 "data": [
  ["CCOC(=O)[C@H](C)NP(=O)(COCCn1cnc2c(=O)[nH]c(N)nc21)N[C@@H](C)C(=O)OCC", "nM", 3020]
]}

Let's switch to this compound now.
Need IC50, item CCOC(=O)[C@H](C)NP(=O)(COCCn1cnc2c(NC3CC3)nc(N)nc21)N[C@@H](C)C(=O)OCC [RABACFOSADINE]
780

# credit: ChEMBL document CHEMBL1821684
